The origin of these recorded values is patent US6028055A.

Overview of reported Binding to NPR-A ratio of mutant/hANP across a group of substances:
Molecular target: NPR-A IgG fusion (A-IgG) (Homo sapiens, UniProt P16066)
Sequence (P16066 with tags, fused parts or gaps limits assumed): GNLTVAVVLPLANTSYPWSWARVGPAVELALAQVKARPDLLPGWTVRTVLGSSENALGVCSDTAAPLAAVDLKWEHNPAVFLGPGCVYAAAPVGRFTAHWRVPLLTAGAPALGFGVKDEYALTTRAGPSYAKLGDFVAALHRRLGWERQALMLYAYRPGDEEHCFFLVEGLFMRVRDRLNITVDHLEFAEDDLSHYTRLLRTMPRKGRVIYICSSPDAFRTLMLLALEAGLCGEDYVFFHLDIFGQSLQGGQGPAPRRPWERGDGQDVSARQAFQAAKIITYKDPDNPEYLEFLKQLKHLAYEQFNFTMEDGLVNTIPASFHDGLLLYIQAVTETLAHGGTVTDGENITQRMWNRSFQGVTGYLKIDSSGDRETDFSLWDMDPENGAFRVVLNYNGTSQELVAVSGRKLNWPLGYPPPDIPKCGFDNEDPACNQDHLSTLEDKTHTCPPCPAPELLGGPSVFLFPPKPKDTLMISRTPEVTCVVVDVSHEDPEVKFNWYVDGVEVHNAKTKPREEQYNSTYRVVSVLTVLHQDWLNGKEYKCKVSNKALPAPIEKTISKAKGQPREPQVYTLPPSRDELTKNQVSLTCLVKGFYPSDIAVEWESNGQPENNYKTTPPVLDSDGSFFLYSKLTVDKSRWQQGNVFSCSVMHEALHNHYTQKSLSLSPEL
Experiment: Phage ELISA measurement of phagemid affinities for NPR-A (A-IgG)
Settings: ratio of mutant BNP phagemid binding affinity (EC50) to ANP phagemid binding to A-IgG; clones after 7 rounds of selection
Method: ELISA measurement of phagemic affinities for NPR-A and NPR-C: Phage ELISA were determined according to the method of Cunningham, B. C. et al., (1994) EMBO J., 13:2508-2515. Microtiter plates (Nunc, Maxisorb, 96 wells) were coated with purified A-IgG (at 1 μg/ml) in 50 mM sodium bicarbonate (pH 9.6) at 4 C overnight. The plates were blocked with 5% skimmed milk and washed with PBS, 0.01% TWEEN 20. […]
Where no end group is shown, it is not given here.
Just the number, please, no unit attached.

Worked cases, answers included:
Substance	Observed value
hBNP Gly23Met, Leu24Phe, Gly25Arg (SPKMVQGSGCFGRKMERISSSSMFRCKVLRRH; ends and bridges not checked; cysteine pairing not given here) [M F R, measured as BNP-phagemid clone (Display BNP, K3D)]	3.0
hBNP Lys14Asn, Ser19Gly, Ser20Arg, Ser21Ala (SPKMVQGSGCFGRNMERIGRASGLGCKVLRRH; ends and bridges not checked; cysteine pairing not given here) [N G R A, measured as BNP-phagemid clone (Display BNP, K3D)]	4.8
hBNP Lys14Asn, Ser19Arg, Ser20Lys, Ser21Thr (SPKMVQGSGCFGRNMERIRKTSGLGCKVLRRH; ends and bridges not checked; cysteine pairing not given here) [N N K T, measured as BNP-phagemid clone (Display BNP, K3D)]	4.2

Moving on to another substance below.
Lookup: # query: Binding to NPR-A ratio of mutant/hANP of entry hBNP Lys14Asn, Ser19Gly, Ser20His, Ser21Leu (SPKMVQGSGCFGRNMERIGHLSGLGCKVLRRH; displayed on phagemid) [N G H L, measured as BNP-phagemid clone (Display BNP, K3D)]
Found: 14.8
